Field: Immunogenicity: response ratio of each peptide in five donors. Provide a value for each of the sequences that follow.
tested on: CD3+CD8+ T cells from HLA-A2+ healthy donors; assay: ICS assay for immunogenicity: IFN-γ production of CD3+CD8+ T cells from peptide-stimulated PBMCs; format: cell-based, human; conditions: percentages of IFN-γ+-secreting CD8+ T cells higher than negative control, PBMCs stimulated 10 μg/mL once-weekly 3 weeks

List Immunogenicity: response ratio of each peptide in five donors for every entry below, keeping the order given.
1. ILDRANQSV [CT-X candidate nonamer predicted by POTN, synthesized]
2. VLSTAPPQL [CT-X candidate nonamer predicted by POTN, synthesized]
3. AMASASPSV [CT-X candidate nonamer predicted by POTN, synthesized]

["3/5", "4/5", "3/5"]
